- MEASUREMENT TARGET: EF pol III (Enterococcus faecalis, UniProt Q831W8)
- TEST PROTOCOL: Inhibition of E. fecalis pol III (Ki)
- Format: biochemical
EXPERIMENTAL ENDPOINT: pKi
Quick note: pKi values are minus log10 of concentrations in mol/L.

## Input Any idea what its pKi is? The compound is CCc1cc(Nc2cc(=O)[nH]c(=O)[nH]2)ccc1C [EMAU, 6-(3-ethyl-4-methylanilino)uracil, reference compound]
## Output 6.59

----------
- MEASUREMENT TARGET: UniProt P13267
- Sequence (P13267 whole entry): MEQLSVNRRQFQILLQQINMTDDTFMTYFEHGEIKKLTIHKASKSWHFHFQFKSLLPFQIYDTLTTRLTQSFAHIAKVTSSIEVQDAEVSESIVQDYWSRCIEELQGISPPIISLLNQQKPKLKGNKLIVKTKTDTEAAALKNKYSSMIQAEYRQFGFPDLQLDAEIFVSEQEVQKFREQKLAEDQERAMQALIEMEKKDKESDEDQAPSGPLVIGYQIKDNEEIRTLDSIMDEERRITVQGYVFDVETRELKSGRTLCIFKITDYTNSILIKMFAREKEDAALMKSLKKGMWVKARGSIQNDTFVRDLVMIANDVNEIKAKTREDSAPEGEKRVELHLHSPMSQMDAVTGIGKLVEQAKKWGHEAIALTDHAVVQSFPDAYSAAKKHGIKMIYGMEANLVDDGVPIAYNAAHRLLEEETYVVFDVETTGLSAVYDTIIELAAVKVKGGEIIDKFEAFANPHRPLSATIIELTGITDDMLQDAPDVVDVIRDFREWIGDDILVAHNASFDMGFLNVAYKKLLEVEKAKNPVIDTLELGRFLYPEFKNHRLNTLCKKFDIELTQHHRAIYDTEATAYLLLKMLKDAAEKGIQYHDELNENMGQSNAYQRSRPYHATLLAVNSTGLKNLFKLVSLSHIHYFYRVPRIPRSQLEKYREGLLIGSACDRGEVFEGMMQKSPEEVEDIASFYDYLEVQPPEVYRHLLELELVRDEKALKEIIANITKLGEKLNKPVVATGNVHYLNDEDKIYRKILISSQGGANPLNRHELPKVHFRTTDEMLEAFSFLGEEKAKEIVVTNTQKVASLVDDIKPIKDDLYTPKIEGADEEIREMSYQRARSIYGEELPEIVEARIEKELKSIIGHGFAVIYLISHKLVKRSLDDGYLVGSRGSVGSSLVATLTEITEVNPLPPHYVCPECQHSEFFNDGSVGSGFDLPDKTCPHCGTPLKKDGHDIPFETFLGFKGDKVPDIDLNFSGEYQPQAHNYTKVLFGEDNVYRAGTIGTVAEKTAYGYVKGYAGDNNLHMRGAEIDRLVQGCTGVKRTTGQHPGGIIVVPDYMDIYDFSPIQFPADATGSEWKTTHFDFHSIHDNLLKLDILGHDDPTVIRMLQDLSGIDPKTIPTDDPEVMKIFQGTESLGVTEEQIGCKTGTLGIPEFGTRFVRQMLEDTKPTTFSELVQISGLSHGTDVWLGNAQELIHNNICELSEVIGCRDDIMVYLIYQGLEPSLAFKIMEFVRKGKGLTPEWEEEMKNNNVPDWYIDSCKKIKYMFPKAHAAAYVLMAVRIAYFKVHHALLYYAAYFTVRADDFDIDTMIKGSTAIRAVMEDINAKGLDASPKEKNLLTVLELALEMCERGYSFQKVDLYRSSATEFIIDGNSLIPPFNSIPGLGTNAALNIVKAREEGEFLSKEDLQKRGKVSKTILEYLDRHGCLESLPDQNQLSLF
- TEST PROTOCOL: Inhibition of B. subtilis DNA pol III (Ki)
- Format: biochemical
- CONDITION SUMMARY: Table 4, average of 3 determinations, standard deviation 13.4%; read-out: KI Bs pol III
Let's look at some molecules and their measured pKi.
Convention used: pKi is expressed as -log10 of the molar concentration.

Observe how each entry below is paired with its result.
| MOLECULE | pKi |
| --- | --- |
| CCc1cc(Nc2cc(=O)n(CCO)c(=O)[nH]2)ccc1C [HE-EMAU] | 6.70 |
| CCc1cc(Nc2cc(=O)n(CCOC)c(=O)[nH]2)ccc1C [ME-EMAU] | 6.72 |

## Input Look up pKi for this molecule: CCc1cc(Nc2cc(=O)[nH]c(=O)[nH]2)ccc1C [EMAU, 6-(3-ethyl-4-methylanilino)uracil, reference compound]
## Output 6.60

## Input Data request, read-out pKi, for CCc1cc(Nc2cc(=O)n(CCCO)c(=O)[nH]2)ccc1C [HP-EMAU]
## Output 6.48

## Input Look at this molecule and give its reported pKi. CCc1cc(Nc2cc(=O)n(CCCOC)c(=O)[nH]2)ccc1C [MP-EMAU]
## Output 6.62
